melting point reference

c1ccc2c(-c3nc4ccccc4[nH]3)cccc2c1 ... 264 to 266 °C
O=C(CCCl)Nc1ccccc1Br ... 104 to 106 °C
COCCNC(=O)C(C)Cl (centres undefined) ... 28 to 30 °C

melting point for Nc1cnn(-c2nccs2)c1 is 89 to 91 °C

Query CSc1ccc(-c2nc(=N)s[nH]2)cc1 yields melting point of 189 to 191 °C

Entry Sc1nnc(NCCCN2CCOCC2)s1 , melting point reported as 145 to 147 °C

Measured melting point of NC(=O)Nc1ccccc1Br : 199 to 201 °C

For record CN1CCc2nc(N)sc2C1 the listed melting point is 168 to 170 °C

// field: melting point; key: Cc1csc(SCc2c(C(=O)O)oc3ccccc23)n1 ; value = 177 to 179 °C

So for Clc1cc(-c2ccccc2)c2ccccc2n1 , the logged melting point turned out to be 85 to 89 °C

// field: melting point; key: CC(C)(C)c1cc(N)n(CCO)n1 ; value = 102 to 104 °C

melting point in this record for O=C1NCCSC1Cc1ccccc1 (centres undefined) : 107 to 109 °C

Kindly note the recorded melting point for O=C(O)CNCc1cccc(Br)c1 , which is 213 to 215 °C

So, CC(=O)c1cc([N+](=O)[O-])ccc1C ? Its melting point was 50 to 52 °C

====

Reported melting point values for the following molecules.

Cc1nc2sc3c(c2c(=O)n1N)CCCCC3 ... 199 to 201 °C
O=C(O)c1ccnc(OCCOc2cc(C(=O)O)ccn2)c1 ... 269 to 271 °C
O=Cc1cc(CCl)ccc1O ... 87 to 89 °C
CC1(C)OC(=O)c2c1ccnc2Cl ... 158 to 160 °C
CCCc1cc(Cl)n2ncnc2n1 ... 67 to 69 °C

Field melting point (entry O=C1NCCNC1(O)C(F)(F)F (stereo not drawn) ) reads 144 to 146 °C

The molecule listed as Cc1ccc(-c2n[nH]cc2Br)cc1C has a reported melting point of 116 to 118 °C

Reported melting point ( Cc1c(Cl)cccc1N1C(=O)C=CC1=O ) = 68 to 70 °C

====

This listing pairs compounds with measured melting point.

In the examples that follow, each entry is paired with its recorded melting point.
Cn1nc(C(=O)O)ccc1=O ... 170 to 175 °C
NNc1nccnc1Cl ... 153 to 155 °C
CCC(C#N)NC(=O)OC(C)(C)C (stereo not drawn) ... 78 to 80 °C
CC(C)(C)C(=O)N1CCC(=O)CC1 ... 94 to 96 °C
O=C(CCl)NCc1ccccc1F ... 79 to 81 °C
CC(C)(C)c1ccc(/C=C/c2cc(C(=O)O)c3cc(Br)ccc3n2)cc1 ... 319 to 321 °C
COc1ccc(CC(=O)O)cc1S(=O)(=O)Cl ... 166 to 168 °C
COC(=O)c1cccc(-c2cccc(C(=O)OC)c2)c1 ... 99 to 101 °C
Cc1cc(N2CCNCC2)nc(C(C)C)n1 ... 42 to 46 °C
Clc1cc2nn[nH]c2cc1Cl ... 249 to 251 °C

So for O=S(=O)(Cl)CCNS(=O)(=O)c1ccccc1 , the logged melting point turned out to be 96 to 98 °C

melting point recorded for this compound, CNC(=O)c1ccc(Cl)cc1N , is 93 to 95 °C

Field melting point (entry CCOC(=O)c1c(N)sc2c1CCN(CC)C2 ) reads 83 to 87 °C

What the record says about COc1ccc(NC2=NCCS2)cc1OC : melting point is 88 to 90 °C

====

Overview of recorded melting point for various compounds

O=C(O)c1cc(Cl)cc2cccnc12 ... 224 to 226 °C
Cc1ccc(Br)c2c1NC(=O)C2=O ... 239 to 241 °C
O=C(O)c1cc(-c2ccccc2F)nc2onc(C3CC3)c12 ... 182 to 184 °C

Query NC(=O)c1cc(Br)c(N)c(Br)c1 yields melting point of 182 to 184 °C

// melting point lookup, compound = O=C(O)/C=C/c1cn(Cc2ccccc2Cl)nc1-c1ccccc1 , result: 148 to 150 °C

Field melting point (entry O=C(O)CCCOc1ccc(I)cc1 ) reads 126 to 128 °C

// sample CN(C(=O)c1ccccc1C(=O)O)C1CCCCC1 , its melting point was 144 to 146 °C

Looking up Cc1c(S(=O)(=O)Cl)oc2ccc(F)cc12 , I see its melting point listed as 81 to 83 °C

// melting point value for Oc1cccc(Oc2ccncn2)c1 : 102 to 104 °C

The compound listed as Cc1cc(C#N)ccc1Oc1ccc(C(=O)O)cc1 shows melting point equal to 212 to 214 °C

For reference, reported melting point for CC1CCN(C(=O)c2ccccc2N)CC1 stands at 59 to 61 °C

====

melting point by entry:

Illustrative cases are given below, each with its answer.
c1cc(NC2CCCCCC2)c2cccnc2c1 ... 100 to 102 °C
CC(C)C(NC(=O)c1ccc(Br)cc1)C(=O)O (configuration not stated) ... 189 to 191 °C
CC1CCc2c(sc3nc(CC#N)[nH]c(=O)c23)C1 (configuration not stated) ... 266 to 268 °C
O=C1COc2c(Cl)cccc21 ... 108 to 110 °C
COC(=O)c1ncccc1O ... 76 to 78 °C
Cc1cc(F)cc2c(=O)c(C(=O)O)c[nH]c12 ... 289 to 291 °C

Now consider the entry below.
Form: compound = Cc1cc(NS(=O)(=O)C(F)(F)F)ccc1C(=O)O ; melting point = 169 to 171 °C

====

Property: melting point; scope: individual molecules

These recorded examples may help you get a feel for the data.
CCCCOc1ccc(-c2nnc(CCl)o2)cc1 ... 77 to 79 °C
O=[N+]([O-])c1ccc(Cl)c(S(=O)(=O)N2CCOCC2)c1 ... 149 to 151 °C

Sure, the documented melting point for CC(C)(C)c1ncccc1O is 159 to 161 °C

For record CN(C)C(=O)c1cc(N)ccc1F the listed melting point is 104 to 106 °C

For reference, reported melting point for OCc1ccn(-c2ccccc2)n1 stands at 49 to 51 °C

The measured melting point associated with CSC(=S)NN=C(C)c1ccccc1 reads 149 to 151 °C

response.value for NCC(c1cccs1)c1c[nH]c2ccccc12 (centres undefined) (field: melting point) = 145 to 147 °C

====

Reported melting point values follow for various compounds

melting point reported for this compound Cc1nc2nc(Br)ccc2o1 : 76 to 78 °C

Record CC(C)CNC(N)=O , field melting point: 134 to 138 °C

compound NC(=O)CNCCC1CCCCC1 , melting point observed: 111 to 113 °C

====

Catalogue of melting point values

Nc1ccc(Cl)cc1C(=O)Nc1ccncc1 ... 169 to 171 °C
COc1cc(Cl)c(C(=O)O)cc1OC ... 179 to 181 °C
O=S(=O)(Nc1cccc(O)c1)c1ccccc1 ... 127 to 129 °C
COC(=O)c1ccc(CBr)s1 ... 36 to 38 °C
Nc1cccc(-n2cnnc2)c1 ... 199 to 201 °C

Note to self: melting point recorded for c1ccc(OCc2nc3ccccc3[nH]2)cc1 was 163 to 165 °C

Entry under test: Cc1ccc(-n2nnc(C(=O)O)c2C)cc1 . Its melting point was 184 to 186 °C

// recorded melting point for Nc1ccccc1NC(=O)N1CCCC1 : 127 to 129 °C

// melting point value for NC(=O)CC(N)=S : 97 to 110 °C

====

Each entry below carries its recorded melting point.

Below: 6 molecules and their reported melting point.
Cn1cc(C(=O)O)c(C(F)(F)F)c1 ... 205 to 207 °C
N=C(NN)c1cc(F)cc(F)c1 ... 101 to 103 °C
O=C(O)Cc1ccc(-n2cccn2)cc1 ... 130 to 132 °C
CC(C)NC(=O)CNS(=O)(=O)CCC(=O)O ... 125 to 127 °C
COC(=O)C1CCN(S(=O)(=O)Cl)CC1 ... 66 to 68 °C
COc1ccc(C(=O)O)cc1-c1ccn(C)n1 ... 179 to 181 °C

Recorded result, CCC(=O)c1ccc2c(c1)CC(=O)N2C , melting point: 205 to 207 °C

// recorded melting point for NS(=O)(=O)c1ccc2c(c1)C(=O)NCC2 : 240 to 242 °C

Form field melting point, entry CCOc1ccc(C=C(C#N)C(=O)O)cc1 : 228 to 230 °C

Noted for Cc1nc(-c2ccc(C)c(NC(=O)CCl)c2)n[nH]1 : its melting point reads 297 to 299 °C

The value of melting point measured for the molecule CC1CC(C)CN(c2nnc(S)n2Cc2ccco2)C1 (stereo not drawn) turned out to be 119 to 121 °C

Note to self: melting point recorded for Cc1ccsc1C(=O)CC#N was 114 to 116 °C

Sure, the documented melting point for Cc1noc(C(F)F)c1C(=O)O is 134 to 136 °C

Values from a melting point compilation (Tetko et al.)
